Some compounds, each annotated with its measured growth inhibition.
TEST SUMMARY: NCI Yeast Anticancer Drug Screen. Data for the wt1 strain (AID 149);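 also: 0% = growth of vehicle-treated wt1 cultures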
CONDITION DETAILS: S. cerevisiae wt1 strain (SPY 50644) growth inhibition; at 11.0 µM; stronger effect = higher value
Compounds without any hit were thinned out: in the full panel of roughly 79,000, 15% have a hit.
Give just the numeric value; % need not be written.

COMPOUND	UNIT ANNOTATION	TEST VALUE
CN(C)CCC(C(=O)C(Br)Br)(c1ccccc1)c1ccccc1	%	26
CC1CCC2(NC1)OC1CC3C4CCC5CC(OC6OC(CO)C(OC7OC(CO)C(O)C(OC8OCC(O)C(O)C8O)C7OC7OC(CO)C(O)C(O)C7O)C(O)C6O)CCC5(C)C4CCC3(C)C1C2C (centres undefined)	%	-18
O=P(Oc1ccc(Cl)cc1)(Oc1ccc(Cl)cc1)N1CC1	%	-4

Memo: O=C(O)CCCc1cc(I)c(N(CCCl)CCCl)c(I)c1 , reported growth inhibition: -59

###

TEST SUMMARY: NCI Yeast Anticancer Drug Screen. Data for the mec2-1 strain (AID 157)
CONDITION DETAILS: S. cerevisiae mec2-1 strain, at 33.0 µM, stronger effect = higher value
The panel holds about 79,000 compounds, 15% with a hit somewhere; the sample as a whole holds those more often.
The label depends only on growth inhibition: T if it is at least 50%, F if it is smaller.

Consider the following illustrative entries.
> print(dat)
                                   compound  category
1                            Br[Se]c1ccccn1         T
2  C[C@]12CCC3[C@@H](CC[C@@H]4c5nonc5CC[C@]34C)C1CCC2=O (stereo partly specified)         T
3  Cc1cc[n+](C2=C(Nc3cccc(C(F)(F)F)c3)C(=O)c3ccccc3C2=O)cc1         F

Could you please find out whether CC1CC(C)CC(C)C(O)/C(C#N)=C/C=C/CC(C2CCCC2C(=O)O)OC(=O)CC(O)C(C)C1 (stereo unspecified) has growth inhibition that meets 50% or exceeds it?
T

Reported growth inhibition at or above 50%? CC1CN1C1=C(Cl)C(=O)C(N2CC2C)=C(Cl)C1=O (stereo unspecified)
T

Does the reported growth inhibition for [O-][n+]1c2cccc(O)c2[n+]([O-])c2cccc(O)c21 fall at or above the 50% mark?
F

Decide: growth inhibition of C[N+](C)(C)CC1CCCC(C[N+](C)(C)C)C1=O (stereo unspecified) >= 50%?
F

Threshold query (growth inhibition >= 50%) on Cn1cnc(N)c1C(=N)[Se]
T

###

TEST SUMMARY: NCI Yeast Anticancer Drug Screen. Data for the cln2 rad14 strain (AID 165);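 also: 0% = growth equal to vehicle treated cultures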
CONDITION DETAILS: S. cerevisiae cln2 rad14 strain, at 50.0 µM (retest, dose inferred, filed as 5.0), stronger effect = higher value
This is part of a sample that, as a whole, favours compounds with a hit. Of some 79,000 tested, about 15% had one in any assay.
REPORTED PROPERTY: growth inhibition (%)
I only need the number, in %, no unit after it.

Here is how some compounds turned out for growth inhibition.
> print(dat)
                                   compound  test.value
1  CCOC(=O)C1CC12c1ccccc1-c1ccccc12 (stereo not drawn)          -5
2      CN(C)c1ccc(/C=C/c2cc[n+]3ccsc3n2)cc1          63
3                       COc1ccc(OC)c(C=O)c1           4
4  CCCCCC(Cn1ccnc1)c1ccc(Cl)cc1Cl (stereo not drawn)          98
5  O=[N+]([O-])c1ccc(-n2nc3ccc4c(no[n+]4[O-])c3[n+]2[O-])c([N+](=O)[O-])c1          97
6  CC(C)c1cccc(C(C)C)c1NC(=O)C(=O)CC(=O)CC(c1ccccc1)c1c(O)c2ccccc2oc1=O (stereo not drawn)          -2
7          C[N+](C)=C1C=CC(=C2C=CSC=C2)C=C1          45
8          CCC[CH2][Sn]1([CH2]CCC)[O]CC[S]1          99

According to the records, this compound O=C1C=C(Cl)C(=O)C=C1Cl displays growth inhibition of 91

Please fill in: growth inhibition reported for CC(C)C1=CC23CCC4C(C)(C(=O)O)CCCC4(C)C2CC1OO3 (stereo not drawn) = 78

Memo: ClCC[N+]12CC[N+](CCCl)(CC1)C2 , reported growth inhibition: 98

Data point: Cc1cc(O)c2c(c1)C(=O)C13C(=C2O)C(=O)C2C(O)C1C1C(O)C3C(=O)C3=C(O)c4c(O)cc(C)cc4C(=O)C321 (stereo not drawn) ; growth inhibition = 47

Form field growth inhibition, entry COc1ccc2c(c1O)C13CCN(C)C(C2)C12C=CC(=O)C3c1c(O)ccc(O)c12 (stereo not drawn) : 41
